Tested on: MDCK-MDR1 cells (P-gp, MDR1)
assay_procedure: MDR1-MDCK bidirectional permeability assay
experimental_setup: A to B
endpoint_name: PappAB

CN(C)C(=O)N1CCC[C@H](c2ccc(NC(=O)OCc3cnco3)cc2)C1: 8.06
CC(=O)N1CCC(c2ccc(NC(=O)OCc3cnco3)cc2)CC1: 9.77
O=C(Nc1ccc(CN2CCC[C@@H]2c2cccnc2)cc1)OCc1ccc(CO)cc1: 5.32

[I] COC(=O)N1CCC(Cc2ccc(NC(=O)OCc3ccncc3)cc2)CC1
[II] CC(C)S(=O)(=O)N1CCC(Cc2ccc(NC(=O)OCc3cnco3)cc2)CC1
[III] O=C(Nc1ccc(CC2CCN(CC(F)F)CC2)cc1)OCc1cnco1
Prompt line: Ordering criterion: PappAB; begin with the maximum. The labels, placed in the requested order, form the answer.
Response line: III, II, I
(III: 13.26, II: 9.11, I: 6.30)

* * *

assay_procedure: Brain exposure assay in mice (brain-to-plasma ratio after oral administration)
Format: in vivo
experimental_setup: mouse, 100 mg/kg, 2 hr
endpoint_name: Cbrain, total (μM)

Check out these entries, answers already filled in.
CN(C)S(=O)(=O)N1CC2(CC(Cc3ccc(NC(=O)OCc4cnco4)cc3F)C2)C1: 19.5, μM
CN(C)C(=O)N1CC2(CC(c3ccc(NC(=O)OCc4cnco4)cc3F)C2)C1: 5.8, μM

Prompt line: Reported Cbrain, total (μM) for `CN(C)C(=O)N1CCC(Cc2ccc(NC(=O)OCc3cnco3)cc2F)CC1` : what is it?
Response line: 25.0, μM

Prompt line: Likewise for `CN(C)S(=O)(=O)N1CCC(Cc2ccc(NC(=O)OCc3cnco3)cc2)CC1` ?
Response line: 12.0, μM

Prompt line: Can you handle `CN(C)C(=O)N1CCC[C@H](c2ccc(NC(=O)OCc3cnco3)cc2)C1` next?
Response line: 16.5, μM

* * *

assay_procedure: Brain exposure assay in mice (brain-to-plasma ratio after oral administration)
Format: in vivo
experimental_setup: male, C57BL/6JNIFDC, mouse, brain, oral, 100 mg/kg, 6 hr, read-out: Cbrain, free
endpoint_name: concentration at 6 h (µM)

These solved cases illustrate the format of a correct answer.
CN(C)C(=O)N1CC2(CC(c3ccc(NC(=O)OCc4cnco4)cc3F)C2)C1 [Compound 400]: 0.08
CN(C)C(=O)N1CCC[C@H](c2ccc(NC(=O)OCc3cnco3)cc2)C1 [Compound 376]: 1
CN(C)S(=O)(=O)N1CC2(CC(Cc3ccc(NC(=O)OCc4cnco4)cc3F)C2)C1 [Compound 399]: 0.14

[P] CN(C)S(=O)(=O)N1CCC(Cc2ccc(NC(=O)OCc3cnco3)cc2)CC1 [Compound 27]
[Q] CN(C)C(=O)N1CCC(Cc2ccc(NC(=O)OCc3cnco3)cc2F)CC1 [Compound 449]
Prompt line: Which value of concentration at 6 h is numerically greater: that of P or that of Q ? Return value: the label identifying the chosen record.
Response line: Q

* * *

tgt: human NAMPT (Homo sapiens (Human), UniProt P43490)
Sequence (P43490 whole entry): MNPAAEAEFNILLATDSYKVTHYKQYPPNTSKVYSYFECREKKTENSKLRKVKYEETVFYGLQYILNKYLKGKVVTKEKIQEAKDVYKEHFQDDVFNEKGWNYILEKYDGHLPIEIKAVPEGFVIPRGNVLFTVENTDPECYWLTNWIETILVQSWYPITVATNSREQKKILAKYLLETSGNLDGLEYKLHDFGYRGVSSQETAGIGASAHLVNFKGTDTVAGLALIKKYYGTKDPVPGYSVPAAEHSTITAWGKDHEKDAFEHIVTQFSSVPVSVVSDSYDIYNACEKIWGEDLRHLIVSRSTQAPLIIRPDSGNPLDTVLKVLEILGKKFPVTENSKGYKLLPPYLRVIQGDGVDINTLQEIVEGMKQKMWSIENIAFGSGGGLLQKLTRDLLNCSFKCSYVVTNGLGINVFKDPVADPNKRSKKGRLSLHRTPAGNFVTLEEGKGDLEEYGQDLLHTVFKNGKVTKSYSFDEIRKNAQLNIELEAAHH
assay_procedure: NMN fluorescence biochemical assay (human recombinant NAMPT enzyme assay)
endpoint_name: AC1.4 Human (µM)

Worked examples follow.
CN(C)C(=O)N1CCC(c2ccc(NC(=O)OCc3cnco3)cc2F)CC1: 0.04
O=C(Nc1ccc(Cc2ccncc2)cc1)OCc1ccns1: 2.03

[I] CC(=O)N1CCC(c2ccc(NC(=O)OCc3ccc(Cl)cc3)cc2)CC1
[II] CC1(C(=O)NCc2ccc(NC(=O)OCc3ccc(Cl)cc3)cc2)COC1
[III] Cc1coc(C(=O)NCc2ccc(NC(=O)OCc3ccc(Cl)cc3)cc2)n1
[IV] C[C@H](NC(=O)[C@@H]1C[C@@H]2[C@H](C1)C2(F)F)c1ccc(NC(=O)OCc2cnco2)cc1
[V] CC(C)C(=O)N1CCC(c2ccc(NC(=O)OCc3cnco3)cc2)CC1
Prompt line: List the 5 entries from lowest AC1.4 Human to highest AC1.4 Human value. Note for the reader: the ranking is given by listing the labels in the order requested.
Response line: V, I, IV, II, III

[1] CN1CCN(Cc2ccc(NC(=O)OCc3ccc(Cl)cc3)cc2)CC1=O
[2] O=C(Nc1ccc(CNC(=O)c2cnccn2)cc1)OCc1ccc(Cl)cc1
[3] Cc1noc(Cc2ccc(NC(=O)OCc3ccc(Cl)cc3)cc2)n1
[4] CS(=O)(=O)N1CCC(Cc2ccc(NC(=O)OCc3cnco3)cc2)CC12CC2 (stereo not drawn)
[5] CCS(=O)(=O)N1CCC(Cc2ccc(NC(=O)OCc3cnco3)cc2)CC12CC2 (stereo not drawn)
Prompt line: Reorder: AC1.4 Human, max to min. State the ranking by listing the labels in the requested order.
Response line: 3, 1, 2, 4, 5
(3: 13.04 µM, 1: 3.72 µM, 2: 2.09 µM, 4: 0.32 µM, 5: 0.18 µM)

[A] CCS(=O)(=O)N1CCC2(CC(Cc3ccc(NC(=O)OCc4cnco4)cc3F)C2)C1 (stereo not drawn)
[B] CC(=O)N1CCC[C@@H](c2ccc(NC(=O)OCc3cnco3)cc2)C1
Prompt line: Given the listed records, identify the one among A and B with higher AC1.4 Human. // respond with label for picked entry
Response line: B
(B: 3.37 µM, A: 0.16 µM)

[1] O=C(Nc1ccc(Cc2ccncc2)cc1)OCc1ccc(CO)cc1
[2] O=C(Nc1ccc(CC2CCN(C(=O)N3CCCCC3)CC2)cc1)OCc1cnco1
Prompt line: // compare measured AC1.4 Human, left 1 , right 2 , return larger Refer to your chosen item by its label in the answer.
Response line: 1

Sourced from patent US20240279215A1
